Consider the following pIC50 data for Gonadotropin-releasing hormone receptor (Rattus norvegicus), collected from several reports.
- Target desc: Gonadotropin-releasing hormone receptor (Rattus norvegicus)
- Sequence (P30969 whole entry): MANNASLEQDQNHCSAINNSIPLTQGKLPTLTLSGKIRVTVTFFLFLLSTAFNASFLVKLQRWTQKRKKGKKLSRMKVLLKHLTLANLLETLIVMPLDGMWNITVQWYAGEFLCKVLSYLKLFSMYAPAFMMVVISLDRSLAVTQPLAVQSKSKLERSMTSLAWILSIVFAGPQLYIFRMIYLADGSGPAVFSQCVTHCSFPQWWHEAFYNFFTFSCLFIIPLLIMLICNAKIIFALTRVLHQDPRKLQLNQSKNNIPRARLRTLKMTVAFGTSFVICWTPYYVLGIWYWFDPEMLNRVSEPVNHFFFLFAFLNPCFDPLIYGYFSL
pIC50: −log10 of the molar value.
Reported endpoint: pIC50

// solved cases for pIC50 follow
>>> recorded_measurement("COc1ccc(-c2[nH]c3ccccc3c2CCNC[C@@H](O)COc2ccc(O)cc2)cc1OC")
5.52
>>> recorded_measurement("CCn1cc(CN2CCN(c3cccc4[nH]c(-c5ccc(C(C)(C)C)cc5)nc34)CC2)nc1C")
7.29
>>> recorded_measurement("Cc1cc(C)cc(-c2[nH]c3ccccc3c2CCNCCc2ccncc2)c1")
6.80
>>> recorded_measurement("COc1cccc(-c2[nH]c3ccccc3c2CCNCCCCc2ccc(O)cc2)c1")
6.22

a: CCCCn1c(SCc2cc([N+](=O)[O-])ccc2OC)nc2cc(NC(=O)NC(C)(C)C)ccc21
b: Cn1ccc2cc(-c3[nH]c4ccccc4c3CCNCCCCc3ccc(O)cc3)ccc21
c: COc1ccc([N+](=O)[O-])cc1CSc1nc2cc(NC(=O)NC(C)(C)C)ccc2n1Cc1ccccn1
d: CCCn1c(SCc2cc([N+](=O)[O-])ccc2OC)nc2cc(NC(=O)NC(C)(C)C)cc(C(=O)NCCc3cccnc3)c21
Highest pIC50 first, then in falling order down to the smallest. Reply format: the labels, ordered as requested. d, a, c, b
(d: 6.96, a: 6.48, c: 6.17, b: 5.55)

1: COc1ccc(-c2[nH]c3ccccc3c2CCNC[C@H](O)COc2ccc(O)cc2)cc1OC
2: Cc1cc(C)cc(-c2[nH]c3ccccc3c2CCNCCCCc2ccccn2)c1
3: COc1ccc([N+](=O)[O-])cc1CSc1nc2cc(NC(=O)NC(C)C)ccc2n1C(C)C
Arrange the 3 compounds from largest to smallest pIC50. Return the labels ranked in the requested order, please. 3, 2, 1
(3: 6.55, 2: 6.35, 1: 5.52)

P: CCOc1nc2cc(S(=O)(=O)NCc3ccc(F)cc3)ccc2n1Cc1ccsc1
Q: CCc1nc(CN2CCN(c3cccc4[nH]c(-c5ccc(C(C)(C)C)cc5)nc34)CC2)c(C)o1
R: COc1ccc(CCCCNCCc2c(-c3cc(C)cc(C)c3)[nH]c3ccccc23)cn1
S: CC(C)(C)CNC(=O)NCCc1nc2cc(S(=O)(=O)NCc3ccc(F)cc3)ccc2n1Cc1ccccc1
Reorder the items by pIC50, least to greatest. Enter labels, ranked according to the request. P, Q, R, S

P: Oc1ccc(CCCCNCCc2c(-c3cccc4cnccc34)[nH]c3ccccc23)cc1
Q: Cc1cc(C)cc(-c2[nH]c3ccccc3c2CCNCCCc2ccncc2)c1
Of P and Q , which shows the smaller pIC50 value? Label of pick, please. P
(P: 5.72, Q: 6.68)

====

Across several publications, the following pIC50 results were reported for Gonadotropin-releasing hormone receptor (Rattus norvegicus, UniProt P30969).
- Target desc: Gonadotropin-releasing hormone receptor (Rattus norvegicus, UniProt P30969)
- Sequence (P30969 whole entry): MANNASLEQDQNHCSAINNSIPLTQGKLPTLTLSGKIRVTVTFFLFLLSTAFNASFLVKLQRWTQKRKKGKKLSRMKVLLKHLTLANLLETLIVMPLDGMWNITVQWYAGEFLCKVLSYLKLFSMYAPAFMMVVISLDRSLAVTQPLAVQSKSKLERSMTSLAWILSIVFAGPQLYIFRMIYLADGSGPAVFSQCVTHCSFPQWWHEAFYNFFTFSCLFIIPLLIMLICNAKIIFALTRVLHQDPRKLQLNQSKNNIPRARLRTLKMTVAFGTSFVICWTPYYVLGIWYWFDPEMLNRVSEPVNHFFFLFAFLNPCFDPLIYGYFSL
pIC50: −log10 of the molar value.
Reported endpoint: pIC50

>>> recorded_measurement("COc1ccc(-c2[nH]c3ccccc3c2CCNCCc2ccc(O)cc2)cc1OC")
5.40
>>> recorded_measurement("COc1ccc([N+](=O)[O-])cc1CSc1nc2cc(NC(=O)NC(C)(C)C)ccc2n1C(C)C")
7.21
>>> recorded_measurement("CCCn1c(SCc2cc([N+](=O)[O-])ccc2OC)nc2cc(NC(=O)NC(C)(C)C)cc(C(=O)N(C)C)c21")
6.70
>>> recorded_measurement("Cc1ccc(C)c(-c2[nH]c3ccccc3c2CCNCCCCc2ccc(O)cc2)c1")
6.40
>>> recorded_measurement("CCSc1nc2cc(S(=O)(=O)NCc3cccc(OC)c3)ccc2n1Cc1ccccc1")
5.40

I: Cc1cc(C)cc(-c2[nH]c3ccccc3c2CCNCCCc2cccnc2)c1
II: CCc1nc(CN2CCN(c3cccc4[nH]c(-c5ccc(C(C)(C)C)cc5)nc34)CC2)cn1CC
III: CCCn1c(SCc2cc([N+](=O)[O-])ccc2OC)nc2cc(NC(=O)NC(C)(C)C)cc(C(=O)NCCCN(C)C)c21
Hi! Can you put these in order of pIC50, lowest number first? Write out the labels following the order that was asked for. I, II, III
(I: 6.70, II: 7.16, III: 7.72)

A: Cc1cc(C)cc(-c2[nH]c3ccccc3c2CCNCCCCc2cncnc2)c1
B: Cc1cc(C)cc(-c2[nH]c3ccccc3c2CCNCCCCCc2ccncc2)c1
C: Cc1cccc(C)c1-c1[nH]c2ccccc2c1CCNCCCCc1ccc(O)cc1
Please list these in order of increasing pIC50. Thank you! Thanks in advance for listing the labels in the requested order. C, A, B

A: Cc1cc(C)cc(-c2[nH]c3ccccc3c2CCNCCCCc2ccc(O)cc2)c1
B: Cc1cc(C)cc(-c2[nH]c3ccccc3c2CCNCc2ccc(O)cc2)c1
C: CC(C)(C)NC(=O)CCCc1nc2cc(S(=O)(=O)NCc3ccc(F)cc3)ccc2n1Cc1ccccc1
Arrange items by their pIC50 values in increasing order. Put the labels in the requested order and write them down. B, C, A
